Data provenance is ChEMBL document CHEMBL4513216.

Test system: Plasmodium falciparum
protocol-details: Screen against P. falciparum Asexual Blood Stage (ABS), at 5uM
Assay type: functional, Dd2
condition-set: tested at 5 uM
In all, about 65,000 compounds went through this assay and about 2,100 (3.2%) showed an effect of 50% or more. The median lay at about -52%. The list comes from a sample in which strong results are over-represented; it also holds close analogues and randomly drawn compounds.
Decide using INHIBITION: a value greater than or equal to -20% is TRUE, a smaller one is FALSE.

Worked examples, 8 compounds total:
compound	cat
CC(=O)N1CC[C@H]2N(C)CC[C@@]2(C(=O)Nc2cccnc2)CC1	FALSE
Cc1nn(-c2ncccn2)c2c1C(c1cnn(C)c1C)SCC(=O)N2 (stereo not drawn)	TRUE
c1cc(CN2CCOC3(CCCC3)C2)no1	FALSE
CCCn1cc(C(=O)NCCS(N)(=O)=O)c2ccccc21	FALSE
Cc1nnc(N2CC[C@@H](OCC3CC3)[C@@H](Cc3ccccc3)C2)s1	TRUE
COc1cccc(CNC(CN2CCN(C)CC2)c2ccccc2)c1 (stereo not drawn)	TRUE
Cc1cc(CN2CC[C@H]3OCC[C@@]3(C(=O)N3CCOCC3)C2)no1	FALSE
Cc1cccc(CNC(CN2CCN(C)CC2)c2ccccc2)c1 (stereo not drawn)	TRUE

Test whether the compound COCCN1CCN(Cc2ccncc2)[C@H]2CS(=O)(=O)C[C@H]21 records INHIBITION of -20% or higher. FALSE

Entry Clc1cccc2c3c([nH]c12)CCN(Cc1cc2n(n1)CCCNC2)C3 : is its INHIBITION no less than -20%? TRUE

* * *

Tested on: Plasmodium falciparum
protocol-details: Screen against P. falciparum Asexual Blood Stage (ABS), at 5uM
Format: functional, Dd2
condition-set: tested at 5 uM
Hit rate of the full screen: of about 65,000 compounds, about 2,100 (3.2%) showed an effect of 50% or more. The median lay at about -52%. Shown is part of a subset that was picked to be rich in strong results.
property-label: INHIBITION (%)
Just the number in %, nothing appended.

molecule	INHIBITION / %
COc1ccc(CN2CCCC2)cc1Oc1ccc2c(c1)CC(CN)O2 (configuration not stated)	88.2
CC(N)Cc1ccccc1Sc1ccccc1 (configuration not stated)	78.3
CSc1ccccc1C(=O)C1CCCN(Cc2cc(C(C)C)[nH]n2)C1 (configuration not stated)	-93.2
CCOCCN1CCO[C@H]2[C@H](OCc3ccccn3)CC[C@@H]21	-65.4
COc1cc(CNC(C)Cn2cccn2)cc2c1OCO2 (configuration not stated)	-32.2
Cn1ncc(NCc2cccc(OCC(F)(F)F)c2)c(Cl)c1=O	-44.7
Cc1ccc(CC(=O)N2CCN(C3CCOC3=O)CC2)cc1 (configuration not stated)	-27.2
CC(C)(C)n1cc(C(=O)NCCN2CCOCC2)c2cccnc21	-89.4
CNS(=O)(=O)CC(=O)NC(C)Cc1ccccc1Br (configuration not stated)	-184
CCN1CCCN(S(=O)(=O)c2cc3ccccc3o2)CC1	84.3

Can you share its INHIBITION? I mean this molecule: O=C1CC[C@H]2[C@H](CCN2Cc2ccccn2)N1CC1CCOCC1 -82.3

GET /values?readout=INHIBITION&item= Cc1cc(CN2C[C@@H]3CN(Cc4ccsc4)CCO[C@@H]3C2)no1 -101

Could you tell me which INHIBITION is on file for CC(C)(NCc1cccc(O)c1)c1ccc2c(c1)OCO2 ? 88.9

Name the reported INHIBITION value associated with the molecule c1cncc(O[C@H]2CC[C@H]3[C@H]2OCCN3C2CCCC2)c1 -36.8

Endpoint output: INHIBITION of O=S1(=O)c2ccccc2OCC2(CCN(CCO)CC2)CN1CC1CC1 . Value? 76.9

// lookup INHIBITION for Cc1cn2c(n1)C(CNCC1=Cc3cc(Cl)ccc3OC1)CCC2 (configuration not stated) 88.2

Dear colleague, I am looking for the recorded INHIBITION of the following molecule: CCCN(C)CC1CCN(c2ccc(Br)c(C)n2)C1 (configuration not stated) 73.7

Entry O=C(CC1CCCC1)N1C[C@@H]2C[C@@H]1CN2 has what INHIBITION? -57.9

# INHIBITION lookup, item CC(=O)c1cc(CC(=O)N2CCN(CCOc3ccccc3)CC2)cs1 7.62

# query: INHIBITION of entry CN(C)c1ncc2c(n1)C1(CCN(Cc3cccnc3)C1)COC2 (configuration not stated) -4.75

* * *

Tested on: Plasmodium falciparum
protocol-details: Screen against P. falciparum Asexual Blood Stage (ABS), at 5uM
Type: functional, Dd2
condition-set: tested at 5 uM
The whole screen tested about 65,000 compounds, of which about 2,100 (3.2%) showed an effect of 50% or more. The median lay at about -52%. Many of the other results were omitted from the sample, so strong results are more common in it than they were.
Some compounds, each annotated with its measured INHIBITION.
Write down the numeric answer in % and omit the unit.

# count of solved cases: 10
compound	INHIBITION / %
CC(Cc1ccccc1Cl)NC(=O)Nc1cnn(CC(N)=O)c1 (stereo not given)	-20.1
c1cc(CO[C@@H]2CN(Cc3ccoc3)[C@@H]3CCCO[C@@H]32)ccn1	-102
CN(Cc1cccnc1)[C@@H]1CN(CC2CC2)[C@@H]2CCCO[C@H]12	-1.12
Cc1ccc(CN(CCCn2ccnc2)Cc2c(F)cccc2F)s1	81.5
Cc1cccc(S(=O)(=O)NCC(C)N2CCN(C)CC2)c1Cl (stereo not given)	81.5
COCC(=O)NC(C)Cc1cccc(Cl)c1 (stereo not given)	-14.8
COC(=O)c1cc(OCC2CCC2)cc(C(=O)N[C@@H]2CNCC[C@H]2O)c1	90.1
Clc1ccccc1CNC(Cn1cncn1)c1ccccc1 (stereo not given)	-8.41
CCOCC(O)CN1CCN(C(=O)Cc2ccccc2C)CC1 (stereo not given)	-143
Cc1c(C(C)N)cnn1-c1cccc2ccccc12 (stereo not given)	74.5

Which INHIBITION is reported for this compound? Cc1noc(C)c1CN1C[C@H](OCC(=O)N(C)C)[C@H]2OCCC[C@H]21 -72.7

Data request, read-out INHIBITION, for CC(C)N1C(=O)C2(CCN(C)CC2)c2cc(F)ccc21 -10.7

Given the compound CCC(NCc1cccc(Cl)c1)c1ccccc1OCC(=O)NC (stereo not given) , what is its reported INHIBITION? 82.8

Bench note: what INHIBITION did CC(=O)N1CCC2(CCN(CC(C)C)C2)C1 (stereo not given) show? -17.7

Fill in: INHIBITION of CC(C)CN1C[C@@H]2C[C@H](C(=O)NCc3cccnc3)[C@H](C1)O2 is ___ -83.7

Given the compound COc1ccc(C[C@H]2CNCC[C@@H]2OC)cc1 , what is its reported INHIBITION? 78.3

Could you tell me which INHIBITION is on file for CN(C)[C@@H]1CN(C(=O)COc2cccc(F)c2)C[C@H]1O ? -21.2

Report INHIBITION for Fc1ccc2[nH]c3c(c2c1)CCN1C(c2ccncc2)N2CCC31CC2 (stereo not given) please. 89.6

* * *

System: Plasmodium falciparum
protocol-details: Screen against P. falciparum Asexual Blood Stage (ABS), at 5uM
Type: functional, Dd2
condition-set: tested at 5 uM
Hit rate of the full screen: of about 65,000 compounds, about 2,100 (3.2%) showed an effect of 50% or more. The median lay at about -52%. The sample holds strong results, similar compounds and a random draw of the others, so the mix is not that of the screen.
property-label: INHIBITION (%)
Field format: number, assumed %, no unit text.

Past entries and their recorded results:
molecule	unit-name	INHIBITION
C[C@@H]1CN(Cc2cccnc2)C[C@]1(C)O	%	-61.6
CCOC(=O)N1CC2(CCNCC2)c2cc(Cl)ccc21	%	78
Cc1noc(C)c1C(=O)N1CCC2(CC1)c1nc[nH]c1CCN2C	%	-42.4
Cc1ccc(NC(=O)NC(C)c2nc[nH]n2)cc1Cl (stereo not given)	%	-107

Look at this molecule and give its reported INHIBITION. CNC(=O)CN1CCC12CCN(C(=O)Cc1ccccc1)C2 (stereo not given) -6.6

I would be grateful if you could share the reported INHIBITION for C[C@@H]1CN(C2CCN(c3ccccc3F)CC2)CC[C@]1(C)O . 87.7

* * *

System: Plasmodium falciparum
protocol-details: Screen against P. falciparum Asexual Blood Stage (ABS), at 5uM
Type: functional, Dd2
condition-set: tested at 5 uM
About 2,100 (3.2%) of roughly 65,000 compounds showed an effect of 50% or more. The median lay at about -52%. This is one part of a sample in which strong results are shown more often than they occur.
property-label: INHIBITION (%)
Note: unit % is implicit; provide only the numeric part.

# count of solved cases: 2
molecule	INHIBITION, %
COc1cccc([C@@H]2CCN(Cc3cccc(C)n3)C[C@H]2O)c1	-29.5
CCn1ccnc1CN1CCCN(C(=O)Cc2csc(C)n2)CC1	-15.3

Entry CCNCCc1nc2cc(F)ccc2[nH]1 : reported INHIBITION = ? -115

Suppose we examine the molecule Cc1cccc(CN2C[C@@H]3OCCN(S(=O)(=O)N(C)C)[C@@H]3C2)n1 ; what INHIBITION value has been reported? -43.1

Entry under review: CCCNc1cc(-c2c[nH]nc2C2CCN(C(=O)C3CCC3)C2)ccn1 (stereo not given) . Reported INHIBITION? 92.5

Report INHIBITION for O=C(C1CCC1)N1CCN(Cc2cccnc2)[C@H]2CS(=O)(=O)C[C@H]21 please. -17.6

// lookup INHIBITION for CCOCCC(=O)N1C[C@@H]2CC[C@H]1CN(Cc1ccncc1)C2 -31.8

Look up INHIBITION for this molecule: CN1CCC(O)(CNCc2ccc(F)c(C(F)(F)F)c2)CC1 83.3

Reported INHIBITION, molecule CCNc1ccnc(CN2CCCC2C(=O)Nc2nccs2)c1 (stereo not given) : ____ 95.1

Consider the molecule COc1ccc2c(c1)c(C(=O)Nc1n[nH]c(C(C)C)n1)cn2C(C)C and give its measured INHIBITION. 22.8
